Cited source for all entries: patent US20200055817A1

target-of-assay: S1P4 (Homo sapiens, UniProt O95977)
experimental-protocol: Aequorin assay, agonist potency, S1P4
measurement-setup: agonist mode, aequorin luminescence
pEC50: −log10 of the molar value.
measurement-kind: pEC50

compound=CCc1cccc(Cl)c1COc1ccc2c(c1)CC1(C2)CN(CC(=O)O)C1 target_of_assay="S1P4 (Homo sapiens, UniProt O95977)" result="> 6.00"
compound=COc1cccc(F)c1COc1ccc2c(c1)CC1(C2)CN(CC2(C(=O)O)CC2)C1 target_of_assay="S1P4 (Homo sapiens, UniProt O95977)" result="< 6.00"
compound=O=C(O)CN1CC2(Cc3ccc(OCCOc4ccccc4)cc3C2)C1 target_of_assay="S1P4 (Homo sapiens, UniProt O95977)" result="> 6.00"
compound="O=C(O)CN1CC2(Cc3ccc(OC4CCc5cc(Cl)cc(Cl)c54)cc3C2)C1 (centres unmarked)" target_of_assay="S1P4 (Homo sapiens, UniProt O95977)" result="> 6.00"
compound=Cc1ccccc1COc1ccc2c(c1)CC1(C2)CN(CC2(C(=O)O)CC2)C1 target_of_assay="S1P4 (Homo sapiens, UniProt O95977)" result="> 6.00"

----------
target-of-assay: human EDG8 (S1PR5) receptor (Homo sapiens, UniProt Q9H228)
Construct: carries the transgenes human EDG8 (S1PR5) receptor (Acession number NP_110387.1)
Sequence (Q9H228 whole entry): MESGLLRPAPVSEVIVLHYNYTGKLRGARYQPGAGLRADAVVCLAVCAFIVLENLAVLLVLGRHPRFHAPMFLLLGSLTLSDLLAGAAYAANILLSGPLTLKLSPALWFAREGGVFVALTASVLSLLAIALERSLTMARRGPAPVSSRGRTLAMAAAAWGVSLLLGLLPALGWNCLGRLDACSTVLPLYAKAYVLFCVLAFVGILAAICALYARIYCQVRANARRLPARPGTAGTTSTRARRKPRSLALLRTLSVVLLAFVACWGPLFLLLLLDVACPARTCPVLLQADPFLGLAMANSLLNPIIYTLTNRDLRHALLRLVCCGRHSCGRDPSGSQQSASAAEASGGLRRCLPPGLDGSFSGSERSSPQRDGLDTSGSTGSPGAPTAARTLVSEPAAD
experimental-protocol: Aequorin assay, agonist potency, CHO-A21-EDG8#12 cells
measurement-setup: agonist mode, aequorin luminescence; read-out: S1P5 EC50 range #
Procedure: Agonistic activity was measured as described below. […] 18 hours prior to the test, vials of frozen cells are quickly thawed in a 37° C. water bath, cells are recovered by centrifugation and resuspended in assay buffer (DMEM/HAM's F12 with HEPES, without phenol red+0.1% fatty acid-free BSA). […] Cells are then placed in the luminescence reader (Hamamatsu Functional Drug Screening System 6000, FDSS6000). […] The resulting emission of light is recorded for 90 seconds using the FDSS6000. […]
measurement-kind: EC50

compound="CCOc1ccc(C#Cc2ccc3c(c2)CC2(C3)CN(C3CC(C(=O)O)C3)C2)cc1F (stereo not drawn) [Example 100]" measurement_kind=EC50 result="≤ 10 nM"
compound="CC(C)Oc1ccc(C#Cc2ccc3c(c2)CC2(C3)CN(CC(=O)O)C2)cn1 [Example 75]" measurement_kind=EC50 result="≤ 10 nM"
compound="O=C(O)CN1CC2(Cc3ccc(OCc4cc(Cl)ccc4Cl)cc3C2)C1 [Example 23]" measurement_kind=EC50 result="≤ 10 nM"
compound="O=C(O)C1(CN2CC3(Cc4ccc(OCCc5cccc(Cl)c5)cc4C3)C2)CC1 [Example 57]" measurement_kind=EC50 result="100 to 1000 nM"
compound="O=C(O)C1CC(N2CC3(Cc4ccc(OCc5cc(Cl)ccc5Cl)cc4C3)C2)C1 (stereo not drawn) [Example 93]" measurement_kind=EC50 result="10 to 100 nM"
compound="O=C(O)C1CC(N2CC3(Cc4ccc(OC5CCc6ccccc65)cc4C3)C2)C1 (stereo not drawn) [Example 104]" measurement_kind=EC50 result="≤ 10 nM"
compound="O=C(O)C1(CN2CC3(Cc4ccc(OCc5ccc6c(c5)OCO6)cc4C3)C2)CC1 [Example 143]" measurement_kind=EC50 result="1000 to 10000 nM"
compound="Cc1cccc(CCCOc2ccc3c(c2)CC2(C3)CN(CC3(C(=O)O)CC3)C2)n1 [Example 146]" measurement_kind=EC50 result="1000 to 10000 nM"
compound="O=C(O)CN1CC2(Cc3ccc(OCc4ccc(Cl)cc4)cc3C2)C1 [Example 11]" measurement_kind=EC50 result="1000 to 10000 nM"
compound="O=C(O)C1(CN2CC3(Cc4ccc(OCc5ccccc5F)cc4C3)C2)CC1 [Example 140]" measurement_kind=EC50 result="1000 to 10000 nM"
compound="O=C(O)CN1CC2(Cc3ccc(C#CC4CCCCC4)cc3O2)C1 [Example 150]" measurement_kind=EC50 result="≤ 10 nM"
compound="COc1ccc(COc2ccc3c(c2)CC2(C3)CN(CC3(C(=O)O)CC3)C2)c(C)n1 [Example 121]" measurement_kind=EC50 result="1000 to 10000 nM"
compound="O=C(O)CN1CC2(Cc3ccc(OCc4c(F)cccc4Cl)cc3C2)C1 [Example 18]" measurement_kind=EC50 result="≤ 10 nM"
compound="O=C(O)C1(CN2CC3(Cc4ccc(OCCc5ccccc5)cc4C3)C2)CC1 [Example 54]" measurement_kind=EC50 result="1000 to 10000 nM"
compound="O=C(O)CN1CC2(Cc3ccc(OC4CCc5cc(Br)cc(F)c54)cc3C2)C1 (stereo not drawn) [Example 68]" measurement_kind=EC50 result="≤ 10 nM"
compound="O=C(O)CN1CC2(Cc3ccc(OC4Cc5ccccc5C4)cc3C2)C1 [Example 73]" measurement_kind=EC50 result="100 to 1000 nM"
compound="O=C(O)CN1CC2(Cc3ccc(C#Cc4ccccc4Cl)cc3C2)C1 [Example 80]" measurement_kind=EC50 result="≤ 10 nM"
compound="Cc1cccc(F)c1COc1ccc2c(c1)CC1(C2)CN(CC(=O)O)C1 [Example 17]" measurement_kind=EC50 result="≤ 10 nM"

----------
target-of-assay: S1P4 (Homo sapiens)
Sequence (O95977 1-384): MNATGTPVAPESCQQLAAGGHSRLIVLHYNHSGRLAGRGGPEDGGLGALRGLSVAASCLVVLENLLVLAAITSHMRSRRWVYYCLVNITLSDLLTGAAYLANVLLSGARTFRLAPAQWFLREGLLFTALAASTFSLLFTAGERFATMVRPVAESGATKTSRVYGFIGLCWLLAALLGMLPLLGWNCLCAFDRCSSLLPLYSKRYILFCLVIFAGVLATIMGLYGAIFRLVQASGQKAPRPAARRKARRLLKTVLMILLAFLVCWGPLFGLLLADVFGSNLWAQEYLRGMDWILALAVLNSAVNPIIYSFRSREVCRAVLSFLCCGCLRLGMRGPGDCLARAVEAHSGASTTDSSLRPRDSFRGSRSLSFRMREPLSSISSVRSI
experimental-protocol: Aequorin assay, agonist potency, S1P4
Assay type: cell-based
measurement-setup: agonist mode, aequorin luminescence
measurement-kind: EC50

compound=O=C(O)C1(CN2CC3(Cc4ccc(-c5ccc(OCC6CCCCC6)cc5)cc4C3)C2)CC1 measurement_kind=EC50 result="> 1 µM"
compound="O=C(O)C1CC(N2CC3(Cc4ccc(OCc5cccc6c5CCC6)cc4C3)C2)C1 (centres unmarked)" measurement_kind=EC50 result="< 1 µM"
compound=CCOc1ccc(C#Cc2ccc3c(c2)CC2(C3)CN(CC3(C(=O)O)CC3)C2)cc1 measurement_kind=EC50 result="> 1 µM"
compound="CCOc1ccc(COc2ccc3c(c2)CC2(C3)CN(C3CC(C(=O)O)C3)C2)c(F)c1F (centres unmarked)" measurement_kind=EC50 result="< 1 µM"
compound=O=C(O)C1(CN2CC3(Cc4ccc(OCCOc5ccccc5Cl)cc4C3)C2)CC1 measurement_kind=EC50 result="< 1 µM"
compound=O=C(O)CN1CCC2(CC1)Cc1ccc(OCc3c(Cl)cccc3Cl)cc1C2 measurement_kind=EC50 result="< 1 µM"
compound="O=C(O)C1(CN2CC3(Cc4ccc(OC5CCc6cccc(Cl)c65)cc4C3)C2)CC1 (centres unmarked)" measurement_kind=EC50 result="< 1 µM"
compound=O=C(O)C1(CN2CC3(Cc4ccc(OCc5ccc(OCC6CC6)cc5)cc4C3)C2)CC1 measurement_kind=EC50 result="> 1 µM"
